Tested on: SK-OV-3 ovarian
Assay: NCI tumour cell line growth inhibition, 48 h
VALUE KIND: GI50

Reference set, count: 6
Ask: Look at this compound and give its reported GI50. CC(C)Oc1ccc(C(=O)Cn2ccnc2)cc1-n1c(CN2CCN(C(=O)COc3ccc(Cl)cc3)CC2)nc2ccccc2c1=O
Result: 20 µM

Ask: Can you check N.N.N.N.N.O=S(=O)([O-])S(=O)(=O)[O-].[Co+3] next?
Result: > 100 µM

Ask: Can you check COc1ccc(-n2nc(C)c3c(Nc4ccc(NC(=O)Nc5ccc(Cl)c(C(F)(F)F)c5)cc4)ncnc32)cc1 next?
Result: 2.42 µM

Ask: Can you check COc1cccc2c(=O)c3c(sc12)c(NCCCNCCO)nc1ccccc13 next?
Result: 3.39 µM

Ask: Can you check CC1c2ccccc2N=C2SC(=S)N3CCN=C3N21 (configuration not stated) next?
Result: > 100 µM

Ask: Can you check CC(=O)[CH-]C(=O)c1ccccc1.CC(=O)[CH-]C(=O)c1ccccc1.CC1(C)OCC(C2OC3OC(C)(C)OC3C2[O-])O1.CC[O-].[Ti+4] (configuration not stated) next?
Result: 21.9 µM

Could you now look at the following compound, please?
Ask: Look at this compound and give its reported GI50. COc1ccc(C2=C(N3CCc4ccccc43)C(=O)NC2=O)cc1
Result: > 25 µM

###

Test system: NCI/ADR-RES ovarian
Assay: NCI tumour cell line growth inhibition, 48 h
Give class 1 when the value for TGI is at least 40 µM. Give class 0 when it is less.

Some entries whose results are on file:
Ask: Determine whether measured TGI meets or exceeds 40 µM for Cc1ccc(NC(=O)/C(Cc2cc(=O)oc3cc(O)ccc23)=N\NC(=O)C[N+](C)(C)C)cc1C
Result: class 1

Ask: Can you check OCc1ccc(N2CCOCC2)cc1Cl next?
Result: class 1

Ask: Can you check O=C(CC(C(=O)c1ccco1)c1ccco1)c1ccco1 (stereo not drawn) next?
Result: class 1

Ask: Can you check CN1N=C(c2ccncc2)OC1c1ccccc1F (stereo not drawn) next?
Result: class 1

Ask: Can you check CCOc1ccc(Nc2c3ccccc3nc3ccccc23)cc1 next?
Result: class 0

New cases:
Ask: Determine whether measured TGI meets or exceeds 40 µM for O=C1c2ccccc2-c2c1c1c(NCCCO)nc3ccccc3c1n2Cc1ccccc1
Result: class 1

Ask: Can you check COc1cc(C2c3cc4c(cc3[C@@H](Nc3ccc5c(c3)OCO5)C3COC(=O)[C@H]23)OCO4)cc(OC)c1O (stereo partly drawn) next?
Result: class 1

Ask: Can you check COc1ccc2c(NCCCCCCNc3c4ccccc4nc4cc(OC)ccc34)c3ccccc3nc2c1 next?
Result: class 0

###

Tested on: MDA-MB-231 breast
Test: NCI tumour cell line growth inhibition, 48 h
VALUE KIND: TGI

Reference set, count: 4
Ask: // fetch MDA-MB-231 breast TGI for CC(C)C1=C(O)C2=C(C(=O)C1=O)C1(C)CCCC(C)(C)C1C(O)C2OC=O (stereo not given)
Result: 22.5 µM

Ask: Can you check CC(=Nc1ccc(S(N)(=O)=O)cc1)c1c(O)[nH]c2ccccc12 next?
Result: > 25 µM

Ask: Can you check O=c1c2ccccc2sc2ccccc12 next?
Result: > 100 µM

Ask: Can you check O=C1CS(=O)(=O)C(c2cccc(Oc3ccccc3)c2)N1c1cc(Cl)ccc1Cl (stereo not given) next?
Result: 38.4 µM

New cases:
Ask: // fetch MDA-MB-231 breast TGI for Cc1ccc(-n2nc(C(C)(C)C)cc2NC(=O)NCc2cc(F)ccc2Oc2ccc3c(cnn3CCO)c2)cc1
Result: > 58.9 µM

###

Tested on: 786-0 renal
Assay: NCI tumour cell line growth inhibition, 48 h; in the data active = GI50 below about 0.43 µM; inactive = the rest
One label from this list, please: active, inactive

Some entries whose results are on file:
Ask: GET /call?item= CCn1c(-c2nonc2N)nc2ccncc21 returns the recorded outcome of this test.
Result: inactive

Ask: Can you check CSc1ccc(N(C)c2nc(C)nc3c2CCC3)cc1 next?
Result: active

Ask: Can you check O=C(/C=C/c1cccc(O)c1)c1cccc(-n2cc(-c3ccc4ccccc4c3)[nH]c2=O)c1 next?
Result: inactive

Ask: Can you check CC1c2ccccc2N=C2SC(=S)N3CCN=C3N21 (stereo unspecified) next?
Result: inactive

Ask: Can you check COc1ccc(C2=C(N3CCc4ccccc43)C(=O)NC2=O)cc1 next?
Result: inactive

# evaluate next
Ask: GET /call?item= OCc1ccc(N2CCOCC2)cc1Cl returns the recorded outcome of this test.
Result: inactive

###

Test system: T-47D breast
Assay: NCI tumour cell line growth inhibition, 48 h
VALUE KIND: TGI

Reference set, count: 10
Ask: // fetch T-47D breast TGI for COc1c(O)c(OC)c2oc(-c3ccc(O)cc3)c(OC)c(=O)c2c1O
Result: 55.7 µM

Ask: Can you check Nc1cc(-c2ccc(Cl)cc2)nn1-c1nnc(/C=C/c2ccco2)c(=O)[nH]1 next?
Result: > 66.5 µM

Ask: Can you check CCNc1ncnc2sc(SCc3ccccc3)nc12 next?
Result: > 100 µM

Ask: Can you check Cc1cc(C)c(/C=C(\C(=C/c2c(C)cc(C)cc2C)[N+](=O)[O-])[N+](=O)[O-])c(C)c1 next?
Result: > 100 µM

Ask: Can you check O=C1OC(c2ccccc2)N(C(=O)c2ccccc2)C1Cc1ccc(OCc2ccccc2)cc1 (stereo unspecified) next?
Result: > 100 µM

Ask: Can you check Nc1nc(Nc2ccccc2)sc1C(=O)c1ccco1 next?
Result: 41.4 µM

Ask: Can you check O=C1c2cccc(O)c2C(=O)c2c(OC3OC(CO)C(O)C(O)C3O)cccc21 (stereo unspecified) next?
Result: 49.1 µM

Ask: Can you check Cc1cc2c(cc1Cl)S/C(=C/C(=O)O)C(Nc1cccc3nsnc13)=NS2(=O)=O next?
Result: > 100 µM

Ask: Can you check COc1cc(C(O)c2ccc3c(c2)OCO3)cc(OC)c1OC (stereo unspecified) next?
Result: > 100 µM

Ask: Can you check c1ccc([P+](CCCCCCCC[P+](c2ccccc2)(c2ccccc2)c2ccccc2)(c2ccccc2)c2ccccc2)cc1 next?
Result: > 100 µM

New cases:
Ask: // fetch T-47D breast TGI for Cc1c(-c2ccccc2)[nH]n(C2=NCCN2)c1=O
Result: > 100 µM

###

System: MOLT-4 leukemia
Assay: NCI tumour cell line growth inhibition, 48 h
VALUE KIND: GI50

Reference set, count: 5
Ask: Look at this compound and give its reported GI50. Fc1ccc2nc(-c3cc(-c4ccc5c(c4)OCO5)n[nH]3)[nH]c2c1
Result: 2560 nM

Ask: Can you check COc1cccc2c(=O)c3c(sc12)c(NCCCNCCO)nc1ccccc13 next?
Result: 1580 nM

Ask: Can you check OCc1ccc(N2CCOCC2)cc1Cl next?
Result: > 100000 nM

Ask: Can you check COc1ccc(-n2nc(C)c3c(Nc4ccc(NC(=O)Nc5ccc(Cl)c(C(F)(F)F)c5)cc4)ncnc32)cc1 next?
Result: 1820 nM

Ask: Can you check C/C1=C\CC[C@@](C)(O)[C@@H]2C[C@H](CC/C(C)=C/CC1)C1(CC1)C(=O)O2 next?
Result: 15500 nM

New cases:
Ask: Look at this compound and give its reported GI50. Clc1ccc2c(c1)N(c1ncnc3ccc(-c4cnc5[nH]ncc5c4)cc13)CC2
Result: 465 nM

Ask: Can you check COc1ccc(Nc2nccc(N3CCN(c4c5ccc(Cl)cc5nc5ccc(OC)cc45)CC3)n2)cc1 next?
Result: 3050 nM

Ask: Can you check CC(C)Oc1ccc(C(=O)Cn2ccnc2)cc1-n1c(CN2CCN(C(=O)COc3ccc(Cl)cc3)CC2)nc2ccccc2c1=O next?
Result: 7550 nM

Ask: Can you check CCN(CC)c1ccc(/C=C/C2=[N+](C)c3ccccc3C2(C)C)c(C)c1 next?
Result: 51.2 nM

Ask: Can you check Cc1cc2c(cc1Cl)S/C(=C/C(=O)O)C(Nc1cccc3nsnc13)=NS2(=O)=O next?
Result: 17900 nM

Ask: Can you check N.N.N.N.N.O=S(=O)([O-])S(=O)(=O)[O-].[Co+3] next?
Result: > 100000 nM

###

Tested on: RPMI-8226 leukemia
Assay: NCI tumour cell line growth inhibition, 48 h; in the data active means GI50 below about 0.43 µM; inactive means the rest
One label from this list, please: TRUE (active), FALSE (inactive)

Some entries whose results are on file:
Ask: GET /call?item= O=C1/C(=C/c2ccc([N+](=O)[O-])cc2)COc2ccc(O)cc21 returns the recorded outcome of this test.
Result: TRUE

Ask: Can you check N.N.N.N.N.O=S(=O)([O-])S(=O)(=O)[O-].[Co+3] next?
Result: FALSE

New cases:
Ask: GET /call?item= Cc1cc2c(cc1Cl)S/C(=C/C(=O)O)C(Nc1cccc3nsnc13)=NS2(=O)=O returns the recorded outcome of this test.
Result: FALSE

Ask: Can you check O=[N+]([O-])c1ccc(-c2cc3c(Nc4ccc(Cl)c(C(F)(F)F)c4)ncnc3s2)cc1 next?
Result: FALSE

Ask: Can you check Nc1cc(-c2ccc(Cl)cc2)nn1-c1nnc(/C=C/c2ccco2)c(=O)[nH]1 next?
Result: FALSE

Ask: Can you check Clc1ccc2c(c1)N(c1ncnc3ccc(-c4cnc5[nH]ncc5c4)cc13)CC2 next?
Result: FALSE
